Data provenance: PubChem BioAssay AID2060616

- Tested on: 377384-186-R-J1-PDC complex spheroid viability
- Assay protocol: Anticancer human tumor 377384-186-R-J1-PDC patient-derived pancreatic carcinoma cell line growth inhibition [CLK]; active = viability on the fitted dose curve at most 10% of control; inactive = the rest
- Run parameters: second compound 0.316 µM; first compound 3.16 µM
Thanks in advance; please answer with one of these: active, inactive

CC1(C)CCC(CN2CCN(c3ccc(C(=O)NS(=O)(=O)c4ccc(NCC5CCOCC5)c([N+](=O)[O-])c4)c(Oc4cnc5[nH]ccc5c4)c3)CC2)=C(c2ccc(Cl)cc2)C1 + CN1CCN(c2cc(C(=O)Nc3cc4cc(-c5cnn(C)c5)ccc4cn3)ccn2)CC1 :: inactive
CCCS(=O)(=O)Nc1ccc(F)c(C(=O)c2c[nH]c3ncc(-c4ccc(Cl)cc4)cc23)c1F + CNC(=O)c1ccc(Nc2nc(OC3CCCC3)c3c(-c4ccc5nc(C)oc5c4)c[nH]c3n2)c(OC)c1 :: inactive
C=C(F)C(=O)N1CCN(c2nc(OCC3CCCN3C)nc3c2CCN(c2cccc4cccc(Cl)c24)C3)CC1CC#N (centres undefined) + CN1CCN(c2cc(C(=O)Nc3cc4cc(-c5cnn(C)c5)ccc4cn3)ccn2)CC1 :: inactive

Next item in the queue.
Q) Answer briefly: the call reported for Nc1ccccc1NC(=O)c1ccc(CNC(=O)OCc2cccnc2)cc1 + CNC(=O)c1ccc(Nc2nc(OC3CCCC3)c3c(-c4ccc5nc(C)oc5c4)c[nH]c3n2)c(OC)c1 in this assay.
A) active

* * *

- Test system: 377384-186-R-J1-PDC complex spheroid viability
- Assay protocol: Anticancer human tumor 377384-186-R-J1-PDC cell line growth inhibition [CLK]; active means viability on the fitted dose curve at most 10% of control; inactive means the rest;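 note: luminescence signal used as a stand-in for viable cells; spheroids exposed to agents for 7 days before reading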
- Run parameters: second compound 10 µM; first compound 0.1 µM
Thanks in advance; please answer with one of these: true (active), false (inactive)

O=c1[nH]cc(F)c(=O)[nH]1 + CN1CCN(c2cc(C(=O)Nc3cc4cc(-c5cnn(C)c5)ccc4cn3)ccn2)CC1 :: true
CC(CO)NC(=O)c1cc(-c2ccc(Cl)cc2)nn(-c2cnn(C)c2)c1=O (stereo not given) + CN1CCN(c2cc(C(=O)Nc3cc4cc(-c5cnn(C)c5)ccc4cn3)ccn2)CC1 :: true

Q) Answer briefly: the call reported for CCN1CCN(Cc2ccc(Nc3ncc(F)c(-c4cc(F)c5nc(C)n(C(C)C)c5c4)n3)nc2)CC1 + CNC(=O)c1ccc(Nc2nc(OC3CCCC3)c3c(-c4ccc5nc(C)oc5c4)c[nH]c3n2)c(OC)c1 in this assay.
A) false

Q) Answer briefly: the call reported for CC(=O)O[C@H]1C(=O)[C@@]2(C)[C@H]([C@H](OC(=O)c3ccccc3)[C@]3(O)C[C@H](OC(=O)[C@H](O)[C@@H](NC(=O)c4ccccc4)c4ccccc4)C(C)=C1C3(C)C)[C@]1(OC(C)=O)CO[C@@H]1C[C@@H]2O + CN1CCN(c2cc(C(=O)Nc3cc4cc(-c5cnn(C)c5)ccc4cn3)ccn2)CC1 in this assay.
A) true

* * *

- System: 377384-186-R-J1-PDC complex spheroid viability
- Assay protocol: Anticancer human tumor 377384-186-R-J1-PDC cell line growth inhibition [CLK]; active = viability on the fitted dose curve at most 10% of control; inactive = the rest;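 note: luminescence signal used as a stand-in for viable cells; spheroids exposed to agents for 7 days before reading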
- Run parameters: second compound 10 µM; first compound 3.16 µM
Thanks in advance; please answer with one of these: active, inactive

Field: example entries. Status: answers known.
C=C(F)C(=O)N1CCN(c2nc(OCC3CCCN3C)nc3c2CCN(c2cccc4cccc(Cl)c24)C3)CC1CC#N (centres undefined) + CNC(=O)c1ccc(Nc2nc(OC3CCCC3)c3c(-c4ccc5nc(C)oc5c4)c[nH]c3n2)c(OC)c1 :: active
CC1(C)CCC(CN2CCN(c3ccc(C(=O)NS(=O)(=O)c4ccc(NCC5CCOCC5)c([N+](=O)[O-])c4)c(Oc4cnc5[nH]ccc5c4)c3)CC2)=C(c2ccc(Cl)cc2)C1 + CN1CCN(c2cc(C(=O)Nc3cc4cc(-c5cnn(C)c5)ccc4cn3)ccn2)CC1 :: active
Nc1ccccc1NC(=O)c1ccc(CNC(=O)OCc2cccnc2)cc1 + CNC(=O)c1ccc(Nc2nc(OC3CCCC3)c3c(-c4ccc5nc(C)oc5c4)c[nH]c3n2)c(OC)c1 :: inactive

Next item in the queue.
Q) Answer briefly: the call reported for CC(CO)NC(=O)c1cc(-c2ccc(Cl)cc2)nn(-c2cnn(C)c2)c1=O (centres undefined) + CN1CCN(c2cc(C(=O)Nc3cc4cc(-c5cnn(C)c5)ccc4cn3)ccn2)CC1 in this assay.
A) active
